B1: ESR2 (parent)
chain: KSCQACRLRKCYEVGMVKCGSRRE

variants of: B1; test: protein stability index of a GFP-peptide fusion (GPS, HEK-293T) (PSI 1-6); higher = more stable; details: c terminus: a fixed tail appended;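 note: lentivirally expressed fusions sorted by FACS into six bins by GFP to DsRed ratio, PSI derived from sequencing read proportions per bin multiplied by bin number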

{"columns": ["Variant label", "protein stability index"],
 "data": [
  ["S21D", 1.75],
  ["R7L", 1.74],
  ["C19E", 2.43],
  ["Y12C", 2.78],
  ["A5Q", 2.11],
  ["R9Y", 2.38],
  ["C19P", 2.28],
  ["G20Q", 1.73],
  ["L8H", 2.4],
  ["A5D", 2.09],
  ["A5S", 2],
  ["K10H", 2.16],
  ["G15V", 1.25],
  ["M16N", 2.15],
  ["V17Y", 1.78],
  ["E24F", 1.91],
  ["K10N", 2.27],
  ["A5K", 2.48],
  ["S21M", 2.13],
  ["K1H", 2.5],
  ["C3F", 2.2],
  ["R23W", 1.67],
  ["V17W", 1.86],
  ["M16D", 1.66],
  ["C6S", 2.25],
  ["S21F", 1.5],
  ["S21H", 2.65],
  ["K10D", 1.49],
  ["C6G", 2.88],
  ["G15Q", 1.49],
  ["A5H", 2.15],
  ["A5N", 1.81],
  ["R7W", 1.89],
  ["R7T", 2.46],
  ["C3S", 3.24],
  ["C11N", 1.78],
  ["C6A", 2.57],
  ["V17D", 1.6],
  ["C11T", 2.29],
  ["K1F", 2.31],
  ["E24M", 1.67],
  ["V17N", 3.53],
  ["R9S", 1.8],
  ["A5W", 1.77],
  ["G15L", 1.55],
  ["E24L", 2.07]
]}
